These data points were gathered from patent US20090192084A1.

Test system: T1, endogenous p97 (human, UniProt P55072 2-806)
T1 construct: also called VCP
T1 sequence (P55072 2-806 limits assumed): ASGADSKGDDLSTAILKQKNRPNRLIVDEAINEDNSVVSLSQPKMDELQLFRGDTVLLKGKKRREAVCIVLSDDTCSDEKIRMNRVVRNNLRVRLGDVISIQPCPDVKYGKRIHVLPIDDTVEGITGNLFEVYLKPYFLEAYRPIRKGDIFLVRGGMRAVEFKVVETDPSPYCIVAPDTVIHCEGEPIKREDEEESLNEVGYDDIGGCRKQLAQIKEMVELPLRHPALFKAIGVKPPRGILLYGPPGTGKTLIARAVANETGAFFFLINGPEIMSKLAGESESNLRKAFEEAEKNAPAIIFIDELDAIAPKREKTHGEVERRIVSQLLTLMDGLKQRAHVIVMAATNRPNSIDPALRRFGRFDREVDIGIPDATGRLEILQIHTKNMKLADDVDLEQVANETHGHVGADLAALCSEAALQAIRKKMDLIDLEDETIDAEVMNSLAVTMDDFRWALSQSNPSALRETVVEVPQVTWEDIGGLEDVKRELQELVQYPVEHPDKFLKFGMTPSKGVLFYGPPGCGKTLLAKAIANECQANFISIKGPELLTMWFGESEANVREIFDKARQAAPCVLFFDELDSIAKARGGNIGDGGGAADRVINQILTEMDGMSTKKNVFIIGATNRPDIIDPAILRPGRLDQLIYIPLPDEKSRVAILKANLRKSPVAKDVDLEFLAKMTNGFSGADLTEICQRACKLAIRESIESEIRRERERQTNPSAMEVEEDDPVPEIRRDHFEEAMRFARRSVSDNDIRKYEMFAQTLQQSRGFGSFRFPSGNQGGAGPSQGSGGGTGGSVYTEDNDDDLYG
Measurement description: Flag co-IP, 293 cells, MudPIT MS
Property measured: spectrum count
Please reply with the number alone, leaving off any unit.

>>> data_value("Flag-p47 (other, UniProt O35987 1-370, looked up, also called RDB 2148; not shown: N-terminal Flag tag) MAEERQDALREFVAVTGAEEDRARFFLESAGWDLQIALASFYEDGGDEDIVTISQATPSSVSRGTAPSDNRVTSFRDLIHDQDEEEEEEEGQRFYAGGSERSGQQIVGPPRKKSPNELVDDLFKGAKEHGAVAVERVTKSPGETSKPRPFAGGGYRLGAAPEEESAYVAGERRRHSGQDVHVVLKLWKTGFSLDNGDLRSYQDPSNAQFLESIRRGEVPAELRRLAHGGQVNLDMEDHRDEDFVKPKGAFKAFTGEGQKLGSTAPQVLNTSSPAQQAENEAKASSSILINEAEPTTNIQIRLADGGRLVQKFNHSHRISDIRLFIVDARPAMAATSFVLMTTFPNKELADENQTLKEANLLNAVIVQRLT")
1610
>>> data_value("Flag-SAKS1 (other, UniProt Q04323 1-297, looked up, also called RDB 2150; not shown: N-terminal Flag tag) MAELTALESLIEMGFPRGRAEKALALTGNQGIEAAMDWLMEHEDDPDVDEPLETPLGHILGREPTSSEQGGLEGSGSAAGEGKPALSEEERQEQTKRMLELVAQKQREREEREEREALERERQRRRQGQELSAARQRLQEDEMRRAAEERRREKAEELAARQRVREKIERDKAERAKKYGGSVGSQPPPVAPEPGPVPSSPSQEPPTKREYDQCRIQVRLPDGTSLTQTFRAREQLAAVRLYVELHRGEELGGGQDPVQLLSGFPRRAFSEADMERPLQELGLVPSAVLIVAKKCPS")
663
>>> data_value("Flag-UBXD6 (other, UniProt O00124 1-270, looked up, also called Rep-8/UBXD6; RDB 2145; not shown: N-terminal Flag tag) MASRGVVGIFFLSAVPLVCLELRRGIPDIGIKDFLLLCGRILLLLALLTLIISVTTSWLNSFKSPQVYLKEEEEKNEKRQKLVRKKQQEAQGEKASRYIENVLKPHQEMKLRKLEERFYQMTGEAWKLSSGHKLGGDEGTSQTSFETSNREAAKSQNLPKPLTEFPSPAEQPTCKEIPDLPEEPSQTAEEVVTVALRCPSGNVLRRRFLKSYSSQVLFDWMTRIGYHISLYSLSTSFPRRPLAVEGGQSLEDIGITVDTVLILEEKEQTN")
212

The recorded spectrum count for entry Flag-UBXD3 (other, UniProt Q96LJ8 1-280, looked up, also called RDB 2149; not shown: N-terminal Flag tag) MATEAPVNIAPPECSTVVSTAVDSLIWQPNSLNMHMIRPKSAKGRTRPSLQKSQGVEVCAHHIPSPPPAIPYELPSSQKPGACAPKSPNQGASDEIPELQQQVPTGASSSLNKYPVLPSINRKNLEEEAVETVAKKASSLQLSSIRALYQDETGTMKTSEEDSRARACAVERKFIVRTKKQGSSRAGNLEEPSDQEPRLLLAVRSPTGQRFVRHFRPTDDLQTIVAVAEQKNKTSYRHCSIETMEVPRRRFSDLTKSLQECRIPHKSVLGISLEDGEGWP equals 254
